Molecular target: T1, recombinant SARS-CoV-2 Spike RBD domain, XBB.1.5 variant (SARS-CoV-2)
T1 construct: also called RBD XBB.1.5 variant
Assay: competition ELISA, blocking of RBD binding to ACE2 ectodomain
measuredQuantity: Blocking % (%)
Respond numerically; units are % and should not be typed.

{"columns": ["binder", "numericResult"],
 "data": [
  ["SPK002M C3 antibody (antibody, human IgG1, kappa, V domains shown) VH: EVQLVESGGGLIQPGGSLRLSCAASIITVTSNYMSWVRQAPGKGLEWVSVIYPGGSTFYADSVKGRFTISTDNSKNTLYLQMNSLRAEDTAVYYCARDLVVYGMDVWGQGTTVTVSS VL: EIVLTQSPGTLSLSPGERATLSCRASQSVSSSYLAWYQQKPGQAPRLLIYGASSRATGIPGRFSGSGSGTDFTLTISRLEPEDFAVYYCQQGVTFGGGTKVEIKR", 90]
]}

Consider the record given below.
Record SPK002M C2 antibody (antibody, human IgG1, kappa, V domains shown) VH: EVQLVESGGGLIQPGGSLRLSCAASIITVTSNYMSWVRQAPGKGLEWVSVAYPGGSTFYADSVKGRFTISTDNSKNTLYLQMNSLRAEDTAVYYCARDLVVYGMDVWGQGTTVTVSS VL: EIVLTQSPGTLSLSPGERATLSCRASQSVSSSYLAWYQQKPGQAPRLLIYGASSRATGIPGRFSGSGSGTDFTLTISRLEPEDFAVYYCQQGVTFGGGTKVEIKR . Reported Blocking %: 93
